Where these numbers come from: the RNAGym collection of RNA variant scans (doi:10.1126/science.aae0568)

B1: tRNA (parent)
chain: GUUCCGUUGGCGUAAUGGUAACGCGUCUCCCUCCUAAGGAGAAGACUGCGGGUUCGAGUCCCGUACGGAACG

Variants of: B1
procedure-text: yeast fitness relative to wild type (ratio to wild type); higher = fitter; tRNA-Arg(CCU), competitive growth, 37 C, YPD
Variants at the floor of the assay were thinned out.

[
  {
    "variant-name": "G44C A65G A70C",
    "yeast fitness": 0.682
  },
  {
    "variant-name": "A14U C27A C33U U47C C49U G51A",
    "yeast fitness": "≤ 0.5"
  },
  {
    "variant-name": "C27G",
    "yeast fitness": 0.644
  },
  {
    "variant-name": "U19C G56A",
    "yeast fitness": 0.91
  },
  {
    "variant-name": "U7G A40C C55G",
    "yeast fitness": 0.591
  },
  {
    "variant-name": "U59C C61A C66A",
    "yeast fitness": "≤ 0.5"
  },
  {
    "variant-name": "C4G A40G A42U",
    "yeast fitness": "≤ 0.5"
  },
  {
    "variant-name": "A14U G48C",
    "yeast fitness": 0.714
  },
  {
    "variant-name": "A14U A43U C55G",
    "yeast fitness": 0.511
  },
  {
    "variant-name": "C5U G17A C60A",
    "yeast fitness": "≤ 0.5"
  },
  {
    "variant-name": "A14G C24G A42C G63A",
    "yeast fitness": "≤ 0.5"
  },
  {
    "variant-name": "A20C C55U C66G",
    "yeast fitness": "≤ 0.5"
  },
  {
    "variant-name": "G10C U13C C24G C55U",
    "yeast fitness": 0.64
  },
  {
    "variant-name": "C4U C22U G23A",
    "yeast fitness": "≤ 0.5"
  },
  {
    "variant-name": "U3G A15U A36G",
    "yeast fitness": "≤ 0.5"
  },
  {
    "variant-name": "A20G A36C G48C U53C A70C",
    "yeast fitness": "≤ 0.5"
  },
  {
    "variant-name": "G18C C29U A70C",
    "yeast fitness": "≤ 0.5"
  },
  {
    "variant-name": "A14U U26A C33A G63A",
    "yeast fitness": "≤ 0.5"
  },
  {
    "variant-name": "C5G U54C G56C G58A",
    "yeast fitness": "≤ 0.5"
  },
  {
    "variant-name": "A42C A65G C66G",
    "yeast fitness": "≤ 0.5"
  },
  {
    "variant-name": "A15G C30A A43G A57U",
    "yeast fitness": 0.529
  },
  {
    "variant-name": "C24A C27U A40U G44C A57U G67C",
    "yeast fitness": "≤ 0.5"
  }
]
